- condition details: in n-propanol, 318.15 K
measured attribute: solubility (mole fraction)
Would you mind answering with just the numeric figure?

Query string: Any idea what solubility (mole fraction) was measured for O=[N+]([O-])c1c(Cl)cc(Cl)c([N+](=O)[O-])c1Cl ?
Result string: 0.0158

---

- condition details: in tetrachloromethane, 288.15 K
measured attribute: solubility (mole fraction)
Would you mind answering with just the numeric figure?

Query string: Any idea what solubility (mole fraction) was measured for O=[N+]([O-])c1c(Cl)cc(Cl)c([N+](=O)[O-])c1Cl ?
Result string: 0.0224

---

- condition details: in ethyl acetate, 308.15 K
measured attribute: solubility (mole fraction)
Would you mind answering with just the numeric figure?

Query string: Any idea what solubility (mole fraction) was measured for O=[N+]([O-])c1c(Cl)cc(Cl)c([N+](=O)[O-])c1Cl ?
Result string: 0.145

---

- condition details: in 1,2-dichloroethane, 313.15 K
measured attribute: solubility (mole fraction)
Would you mind answering with just the numeric figure?

Query string: Any idea what solubility (mole fraction) was measured for O=[N+]([O-])c1c(Cl)cc(Cl)c([N+](=O)[O-])c1Cl ?
Result string: 0.144

---

- condition details: in n-propanol, 313.15 K
measured attribute: solubility (mole fraction)

Query string: Any idea what solubility (mole fraction) was measured for O=[N+]([O-])c1c(Cl)cc(Cl)c([N+](=O)[O-])c1Cl ?
Result string: 0.0132

---

- condition details: in tetrachloromethane, 318.15 K
measured attribute: solubility (mole fraction)
Would you mind answering with just the numeric figure?

Query string: Any idea what solubility (mole fraction) was measured for O=[N+]([O-])c1c(Cl)cc(Cl)c([N+](=O)[O-])c1Cl ?
Result string: 0.0695

---

- condition details: in acetonitrile, 293.15 K
measured attribute: solubility (mole fraction)
Would you mind answering with just the numeric figure?

Query string: Any idea what solubility (mole fraction) was measured for O=[N+]([O-])c1c(Cl)cc(Cl)c([N+](=O)[O-])c1Cl ?
Result string: 0.0373

---

- condition details: in acetone, 313.15 K
measured attribute: solubility (mole fraction)
Would you mind answering with just the numeric figure?

Query string: Any idea what solubility (mole fraction) was measured for O=[N+]([O-])c1c(Cl)cc(Cl)c([N+](=O)[O-])c1Cl ?
Result string: 0.18

---

- condition details: in methanol, 318.15 K
measured attribute: solubility (mole fraction)
Would you mind answering with just the numeric figure?

Query string: Any idea what solubility (mole fraction) was measured for O=[N+]([O-])c1c(Cl)cc(Cl)c([N+](=O)[O-])c1Cl ?
Result string: 0.0909

---

- condition details: in tetrachloromethane, 298.15 K
measured attribute: solubility (mole fraction)
Would you mind answering with just the numeric figure?

Query string: Any idea what solubility (mole fraction) was measured for O=[N+]([O-])c1c(Cl)cc(Cl)c([N+](=O)[O-])c1Cl ?
Result string: 0.0341

---

- condition details: in 1,2-dichloroethane, 293.15 K
measured attribute: solubility (mole fraction)
Would you mind answering with just the numeric figure?

Query string: Any idea what solubility (mole fraction) was measured for O=[N+]([O-])c1c(Cl)cc(Cl)c([N+](=O)[O-])c1Cl ?
Result string: 0.0837

---

- condition details: in ethyl acetate, 293.15 K
measured attribute: solubility (mole fraction)
Would you mind answering with just the numeric figure?

Query string: Any idea what solubility (mole fraction) was measured for O=[N+]([O-])c1c(Cl)cc(Cl)c([N+](=O)[O-])c1Cl ?
Result string: 0.105
